test name: NS1 protein of Zika virus - qHTS assay to identify small molecule inhibitors in human HEK 293 cells (AID 1347053); further: nearly all actives have a fitted effect of over 55% in size; further: potency means the concentration at half of the fitted maximal effect
reported conditions: HEK293 ZIKV MR766 infection, NS1 TR-FRET, 24 h; series mostly up to 46.1 µM
Inconclusive results are not listed. The source made the active and inactive calls. The call rests on the fitted dose curve; in most records, active means well fitted inhibition curve with a large enough effect; inconclusive means small, poorly fitted or top-dose-only effect; inactive means no such curve, though single readings can be large or run the other way.
result type: Potency

INSERT INTO measurements (compound, result) VALUES
  ('Nc1nc(N)c(-c2ccccc2)s1', 'inactive'),
  ('C/C=C/C=N/NC(=O)c1ccncc1', 'inactive'),
  ('O=C(CCN1CCN2CCCC2C1)N1c2ccccc2Sc2ccc(Cl)cc21 (stereo not given)', 'inactive'),
  ('O=C(O)C(Cc1cc(I)c(O)c(I)c1)c1ccccc1 (stereo not given)', 'inactive'),
  ('C[N+]1(C)CCC(=C(c2ccccc2)c2ccccc2)CC1', 'inactive'),
  ('NCc1ccccc1Sc1ccccc1CO', 'inactive'),
  ('CN=C(N)NCCC[C@H](N)C(=O)O', 'inactive'),
  ('COc1ccc(CN(CCN(C)C)c2ncccn2)cc1', 'inactive'),
  ('Cc1cn([C@H]2C[C@H](F)[C@@H](CO)O2)c(=O)[nH]c1=O', 'inactive'),
  ('Cc1cc(NS(=O)(=O)c2ccc(N)cc2)nc(C)n1', 'inactive');

# per-item lookup of Potency; items listed below
1. Cc1c(-c2ccccc2)oc2c(C(=O)OCCN3CCCCC3)cccc2c1=O
2. CC1(COc2ccc(CC3SC(=O)NC3=O)cc2)CCCCC1 (stereo not given)
3. CCOc1ccc(NC(C)=O)cc1
4. Nc1nc(Cl)nc2c1ncn2[C@@H]1O[C@H](CO)[C@@H](O)[C@@H]1F
5. CCO[C@@H]1O[C@H](C(COCc2ccccc2)OCc2ccccc2)[C@H](OCc2ccccc2)[C@H]1O (stereo not given in full)
6. Nc1nc(-c2ccccc2)c(Br)c(=O)[nH]1
7. CCOc1ccccc1OCCN[C@H](C)Cc1ccc(OC)c(S(N)(=O)=O)c1
8. COc1ccc2c(c1)c1c3n2CCN(C)C3=NCC1

inactive
inactive
inactive
4.47 µM (active)
inactive
inactive
inactive
inactive

# per-item lookup of Potency; items listed below
1. CN1CCN(c2c(F)cc3c(=O)c(C(=O)O)cn4c3c2SCC4)CC1
2. C=C[C@@]1(C)CC(=O)[C@]2(O)[C@@]3(C)[C@@H](O)CCC(C)(C)[C@@H]3[C@H](O)[C@H](OC(C)=O)[C@@]2(C)O1
3. N#CCC(=O)NN

["inactive", "inactive", "inactive"]

# per-item lookup of Potency; items listed below
1. Cc1cccc(C)c1NC(=O)CN1CCCC1
2. CC(=O)NC(=O)c1ccccc1O
3. OC(C#CCN1CCCC1)(c1ccccc1)c1ccccc1
4. CCCCCCCCCCCCCCCC(=O)O

inactive
inactive
inactive
inactive

====

Could you please report measured activity, negative = cell killing for the items listed next?
test name: Drug repurposing screens with cells derived from glioblastoma tumor samples (AID 1345199); further: on the % scale 0 is the no-effect control and ±100 the full control effect; nearly all actives have a fitted effect of over 40% in size
reported conditions: GBM patient neurospheres viability, ATP luminescence, 48 h; at 45.9 µM (top of the series); tumour line B
Results filed as inconclusive are left out.
Answers are plain numbers, in %.

These solved cases illustrate the format of a correct answer.
INSERT INTO measurements (compound, numeric_result) VALUES
  ('OC1C(O)C(O)C(O)C(O)C1O (stereo unspecified)', -13.8),
  ('Cc1cc(-c2ccccc2)nnc1NCCN1CCOCC1', -18.6);

# per-item lookup of activity, negative = cell killing; items listed below
1. Cc1cccc(C)c1NC(=O)CN1CCCCCC1
2. CCCN(CCC)S(=O)(=O)c1ccc(C(=O)O)cc1
3. Cc1ccc(O)c([C@H](CCN(C(C)C)C(C)C)c2ccccc2)c1
4. COc1ccc(C(Cl)=C(c2ccc(OC)cc2)c2ccc(OC)cc2)cc1

[-3.5, -5.41, -18, -6.95]
